# measurement target: T1, PUF4 RNA-binding domain (Saccharomyces cerevisiae, UniProt P25339 537-888)
# T1 sequence: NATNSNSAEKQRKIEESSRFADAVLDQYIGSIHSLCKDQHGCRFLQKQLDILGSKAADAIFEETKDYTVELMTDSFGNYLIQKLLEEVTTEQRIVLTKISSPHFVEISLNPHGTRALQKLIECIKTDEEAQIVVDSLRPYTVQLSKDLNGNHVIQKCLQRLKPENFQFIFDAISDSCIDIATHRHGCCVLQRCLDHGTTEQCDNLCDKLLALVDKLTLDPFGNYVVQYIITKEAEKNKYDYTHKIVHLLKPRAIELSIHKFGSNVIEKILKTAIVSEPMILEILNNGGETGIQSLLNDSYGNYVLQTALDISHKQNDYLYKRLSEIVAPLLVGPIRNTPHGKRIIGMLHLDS
# assay comment: Mg; RNA-MaP; 20 mM Na-HEPES pH 7.4, 30 mM KOAc, 0.75 mM MgCl2, 0.1% Tween-20, 5% glycerol, 0.1 mg/mL BSA, 2 mM DTT; 25 C; 0.0125-409.6 nM protein
# particulars: tags: N-His6-TEV cleaved; C-SNAP kept, Cy3B-labelled; label: tethered on chip by stalled RNA polymerase
pKd: −log10 of the molar value.
Use 8 as the dividing line for pKd, with the line itself on the true side and lower values as false.

// known answers, use as guide
Req: Assess whether reported pKd for Id_ii_S2_P3E.4_K3.3_C3.2_[C-2T]_[T-1A]_H3.3_A3.1_F3.1_T3.2_[T9A] (ssRNA) RNA: UUUGAUUAAUAUGAUAUCGUUCUUUCUUAACACUAUAAAUUCUUUCUCGAUAUCAUAUUAAUCUUU sits at 8 or higher.
Resp: false

Req: And Ib_S4_P5E.1_K5.1_C5.1_H5.1_[T1A]_[T3C]_A5.1_F5.1_T5.1 (ssRNA) RNA: UUUGACAACUGAUCGUUCUUUCUAGCAUUAUUAUUCUUUCUCGAUCAGUUGUCUUU ?
Resp: false

Further cases:
Req: Determine whether this binder has pKd no lower than 8: Id_ii_S2_P4E.3_K4.2_C4.2_[C-2T]_[T-1G]_H4.2_A4.1_F4.1_T4.2_[G10A]_[T11A] (ssRNA) RNA: UUUGAUUAAUAUGAUAUCGUUCUUUCUUGUAUAUAUUAAAUUCUUUCUCGAUAUCAUAUUAAUCUUU
Resp: true

Req: // same read-out, input: UCUCUUUCGUAUAUAUAUAUCUCUU (ssRNA) [Id_iii_S1_P3E.6_K3.2_C3.3_[T-1G]_H3.2_A3.1_F3.1_T3.2]
Resp: false

Taken from paper PMC9352680.
